Assay: Solubility in 50 mM phosphate buffer (HPLC)
Conditions: 50 mM phosphate buffer, pH 2, aqueous buffer, thermodynamic from solid

# molecule, solubility at 20 min (mM)
measured = [
    ("N/C(=N\\O)c1ccc(OCCCCCOc2ccc(/C(N)=N/O)cc2)cc1 [Pentamidine diamidoxime (3), Pentamidine diamidoxime]", 4.21),
]

* * *

Experiment: Solubility in 50 mM phosphate buffer (HPLC)
Conditions: 50 mM phosphate buffer, pH 7.4, aqueous buffer, thermodynamic from solid
reported_property: solubility at 20 min

# molecule, reported_property, observed_result
records = [
    ("N/C(=N\\O)c1ccc(OCCCCCOc2ccc(/C(N)=N/O)cc2)cc1", "solubility at 20 min", "12 µM"),
]

Value source: patent US9662308B2
